// provenance: ChEMBL document CHEMBL3797125

In this section, each of the compounds is paired with its reported pEC50.
biological target: Glutamate NMDA receptor; GRIN1/GRIN2A (Homo sapiens, UniProt Q05586+Q12879); assay: Positive allosteric modulation of GluN1/GluN2A NMDAR (unknown origin) expressed in Dox-inducible cells measured every 5 mins by BD calcium indicator dye based-fluorescence analysis in presence of glutamate/glycine
Sequence (Q12879 whole entry, other chains not shown): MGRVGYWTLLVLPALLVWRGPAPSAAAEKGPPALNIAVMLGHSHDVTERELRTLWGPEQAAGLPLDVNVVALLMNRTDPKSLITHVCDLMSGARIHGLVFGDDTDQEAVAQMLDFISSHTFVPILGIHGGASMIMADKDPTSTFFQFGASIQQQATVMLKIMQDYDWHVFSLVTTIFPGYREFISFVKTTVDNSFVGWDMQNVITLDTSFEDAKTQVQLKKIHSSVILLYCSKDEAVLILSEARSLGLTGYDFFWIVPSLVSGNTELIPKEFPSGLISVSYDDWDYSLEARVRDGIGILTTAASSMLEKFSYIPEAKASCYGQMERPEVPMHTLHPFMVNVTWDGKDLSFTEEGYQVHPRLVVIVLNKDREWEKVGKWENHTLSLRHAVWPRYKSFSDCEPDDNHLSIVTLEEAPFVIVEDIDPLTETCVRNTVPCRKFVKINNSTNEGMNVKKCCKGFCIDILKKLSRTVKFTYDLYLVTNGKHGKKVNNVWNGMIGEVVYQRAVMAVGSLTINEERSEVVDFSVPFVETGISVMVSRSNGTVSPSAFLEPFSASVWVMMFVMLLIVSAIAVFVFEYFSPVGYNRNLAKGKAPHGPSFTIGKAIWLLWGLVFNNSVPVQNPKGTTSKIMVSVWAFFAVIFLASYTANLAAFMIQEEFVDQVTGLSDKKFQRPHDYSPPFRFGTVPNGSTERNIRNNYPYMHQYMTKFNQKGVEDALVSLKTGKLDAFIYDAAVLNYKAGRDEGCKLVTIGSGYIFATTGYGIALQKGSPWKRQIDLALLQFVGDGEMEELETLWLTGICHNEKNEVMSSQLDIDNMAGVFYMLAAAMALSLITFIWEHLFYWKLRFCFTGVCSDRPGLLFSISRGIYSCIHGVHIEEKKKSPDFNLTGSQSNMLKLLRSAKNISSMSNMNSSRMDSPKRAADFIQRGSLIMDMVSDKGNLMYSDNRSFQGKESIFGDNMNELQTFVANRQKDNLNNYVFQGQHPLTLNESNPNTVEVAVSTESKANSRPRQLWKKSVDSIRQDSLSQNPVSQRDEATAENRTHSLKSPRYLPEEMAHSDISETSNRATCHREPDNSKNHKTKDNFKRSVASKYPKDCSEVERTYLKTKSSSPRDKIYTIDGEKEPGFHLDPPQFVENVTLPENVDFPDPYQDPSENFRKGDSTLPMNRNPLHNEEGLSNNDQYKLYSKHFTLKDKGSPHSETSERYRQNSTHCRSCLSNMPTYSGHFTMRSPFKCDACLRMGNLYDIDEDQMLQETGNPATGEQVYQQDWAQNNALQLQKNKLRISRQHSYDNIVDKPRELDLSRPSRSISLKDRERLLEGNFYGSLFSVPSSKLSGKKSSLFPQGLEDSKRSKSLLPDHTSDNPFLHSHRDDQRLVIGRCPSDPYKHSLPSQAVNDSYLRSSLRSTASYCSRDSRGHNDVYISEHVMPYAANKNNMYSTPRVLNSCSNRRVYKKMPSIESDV
Quick note: pEC50 values are minus log10 of concentrations in mol/L.

Example entries and their recorded answers appear below.
[
  {
    "compound": "CCCN(Cc1cc(=O)n2c(C(=O)NCC)c(C)sc2n1)c1ccc(F)cc1",
    "property_name": "pEC50",
    "number": 6.88
  },
  {
    "compound": "CCNC(=O)c1c(C)sc2nc(Cn3nc(C(F)(F)F)cc3Cl)cc(=O)n12",
    "property_name": "pEC50",
    "number": 6.36
  }
]

## Task Entry `CCN(Cc1cc(=O)n2c(N3CCOCC3)c(C)sc2n1)c1ccc(F)cc1` has what pEC50?
## Result 5.66

* * *

biological target: Glutamate receptor 2 (Homo sapiens, UniProt P42262); experiment: Positive allosteric modulation of human GluA2 AMPAR flip isomer expressed in Dox-inducible cells measured every 5 mins by BD calcium indicator dye based-fluorescence analysis in presence of glutamate; type: cell-based
Sequence (P42262 whole entry): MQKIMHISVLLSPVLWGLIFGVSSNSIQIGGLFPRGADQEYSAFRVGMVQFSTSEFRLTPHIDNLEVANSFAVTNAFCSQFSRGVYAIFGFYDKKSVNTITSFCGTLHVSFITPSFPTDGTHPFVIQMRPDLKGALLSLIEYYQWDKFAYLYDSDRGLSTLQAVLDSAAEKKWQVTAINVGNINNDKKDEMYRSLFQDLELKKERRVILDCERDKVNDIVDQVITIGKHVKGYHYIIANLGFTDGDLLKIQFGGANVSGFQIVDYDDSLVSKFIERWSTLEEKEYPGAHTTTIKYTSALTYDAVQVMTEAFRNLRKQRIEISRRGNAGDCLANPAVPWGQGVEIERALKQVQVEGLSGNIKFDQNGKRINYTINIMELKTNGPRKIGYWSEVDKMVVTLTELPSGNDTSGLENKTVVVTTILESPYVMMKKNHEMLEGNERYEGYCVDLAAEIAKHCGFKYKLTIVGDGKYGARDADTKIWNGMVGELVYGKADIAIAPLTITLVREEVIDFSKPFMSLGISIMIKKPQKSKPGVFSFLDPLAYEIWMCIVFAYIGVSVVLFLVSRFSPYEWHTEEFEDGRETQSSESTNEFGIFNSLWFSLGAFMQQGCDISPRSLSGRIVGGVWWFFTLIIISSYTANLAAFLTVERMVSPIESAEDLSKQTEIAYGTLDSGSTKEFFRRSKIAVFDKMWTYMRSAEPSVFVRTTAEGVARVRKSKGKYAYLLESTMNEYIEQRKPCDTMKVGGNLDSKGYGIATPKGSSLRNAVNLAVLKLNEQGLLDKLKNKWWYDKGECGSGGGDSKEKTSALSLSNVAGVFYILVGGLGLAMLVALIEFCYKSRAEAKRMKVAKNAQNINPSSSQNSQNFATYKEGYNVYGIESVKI
property_name: log10 of EC50 (log10 of the value in µM)
Would you kindly interpret these values as log10 of EC50 expressed in µM?

Example entries and their recorded answers appear below.
[
  {
    "compound": "Cc1sc2nc(Cn3nc(C(F)(F)F)cc3Cl)cc(=O)n2c1[C@@H]1C[C@H]1C#N",
    "property_name": "log10 of EC50",
    "number": -0.15
  },
  {
    "compound": "CCNC(=O)c1c(C)sc2nc(Cc3cccc(C#N)c3)cc(=O)n12",
    "property_name": "log10 of EC50",
    "number": 1.52
  },
  {
    "compound": "CCN(Cc1cc(=O)n2c(C#N)c(C)sc2n1)c1ccc(F)cc1",
    "property_name": "log10 of EC50",
    "number": 1.82
  },
  {
    "compound": "CCN(Cc1cc(=O)n2nc(C)sc2n1)c1ccc(F)cc1",
    "property_name": "log10 of EC50",
    "number": 0.52
  },
  {
    "compound": "CCCCc1nn2c(=O)cc(CN(CC)c3ccccc3)nc2s1",
    "property_name": "log10 of EC50",
    "number": 1.55
  },
  {
    "compound": "CCN(Cc1cc(=O)n2c(C(C)C)c(C)sc2n1)c1ccc(F)cc1",
    "property_name": "log10 of EC50",
    "number": 1.54
  },
  {
    "compound": "N#C[C@@H]1C[C@H]1c1c(C(F)(F)F)sc2nc(Cn3nc(C(F)(F)F)cc3Cl)cc(=O)n12",
    "property_name": "log10 of EC50",
    "number": 0.96
  },
  {
    "compound": "CCN(Cc1cc(=O)n2c(-c3cccnc3)c(C)sc2n1)c1ccc(F)cc1",
    "property_name": "log10 of EC50",
    "number": 1.53
  }
]

## Task Form field: reported log10 of EC50 of `CCN(Cc1cc(=O)n2nc(C)sc2n1)c1ccccc1`
## Result 0.88

## Task Given `CCN(Cc1cc(=O)n2c(C(C)(C)O)c(C)sc2n1)c1ccc(F)cc1` , state its recorded log10 of EC50.
## Result 1.09

## Task Reported log10 of EC50 for Cc1sc2nc(Cc3cccc(C(F)(F)F)c3F)cc(=O)n2c1C1CC1CO (racemic) : what is it?
## Result 0.23

## Task Param item = `CCN(Cc1cc(=O)n2c([C@@H]3C[C@H]3CO)c(C)sc2n1)c1ccc(F)cc1` ; retrieve measured log10 of EC50.
## Result -0.06

* * *

biological target: Glutamate receptor 2 (Homo sapiens, UniProt P42262); test: Positive allosteric modulation of human GluA2 AMPAR flip isomer expressed in Dox-inducible cells at 125 uM measured every 5 mins by BD calcium indicator dye based-fluorescence analysis in presence of glutamate; assay type: cell-based
Just a reminder that ties go to Not satisfied: only %max strictly below 40% counts as Satisfied.

Below, 5 molecules whose answers are already recorded.
[
  {
    "molecule": "N#C[C@@H]1C[C@H]1c1c(C(F)(F)F)sc2nc(Cn3nc(C(F)(F)F)cc3Cl)cc(=O)n12",
    "tested_target": "Glutamate receptor 2 (Homo sapiens, UniProt P42262)",
    "category_label": "Not satisfied"
  },
  {
    "molecule": "Cc1sc2nc(Cn3nc(C(F)(F)F)cc3Cl)cc(=O)n2c1[C@@H]1C[C@H]1CO",
    "tested_target": "Glutamate receptor 2 (Homo sapiens, UniProt P42262)",
    "category_label": "Not satisfied"
  },
  {
    "molecule": "CCN(Cc1cc(=O)n2c(C(=O)NC)c(C)sc2n1)c1ccc(F)cc1",
    "tested_target": "Glutamate receptor 2 (Homo sapiens, UniProt P42262)",
    "category_label": "Satisfied"
  },
  {
    "molecule": "CCNC(=O)c1c(C)sc2nc(Cc3cc(C#N)ccc3Cl)cc(=O)n12",
    "tested_target": "Glutamate receptor 2 (Homo sapiens, UniProt P42262)",
    "category_label": "Satisfied"
  },
  {
    "molecule": "CCNC(=O)c1c(C)sc2nc(Cn3ccc(C(F)(F)F)n3)cc(=O)n12",
    "tested_target": "Glutamate receptor 2 (Homo sapiens, UniProt P42262)",
    "category_label": "Satisfied"
  }
]

Now for another entry.
## Task Please let me know if `CCNC(=O)c1c(C)sc2nc(Cn3nc(C(F)(F)F)cc3C)cc(=O)n12` shows %max below 40%.
## Result Satisfied

* * *

target: Glutamate receptor 2 (Homo sapiens, UniProt P42262); assay: Positive allosteric modulation of human GluA2 AMPAR flop isomer expressed in Dox-inducible cells at 125 uM measured every 5 mins by BD calcium indicator dye based-fluorescence analysis in presence of glutamate; type: cell-based
property_name: %max (%)
# output: bare number, implied unit %

Solved entries:
[
  {
    "mol": "Cc1sc2nc(Cn3nc(C(F)(F)F)cc3Cl)cc(=O)n2c1[C@@H]1C[C@H]1C#N",
    "uom": "%",
    "%max": 93
  },
  {
    "mol": "CCNC(=O)c1c(C)sc2nc(Cc3cccc(C#N)c3F)cc(=O)n12",
    "uom": "%",
    "%max": 3
  },
  {
    "mol": "CCNC(=O)c1c(C)sc2nc(Cn3ccc(C(F)(F)F)n3)cc(=O)n12",
    "uom": "%",
    "%max": 1
  }
]

## Task Fill in: %max of `CCN(Cc1cc(=O)n2c([C@@H]3C[C@H]3CO)c(C)sc2n1)c1ccc(F)cc1` is ___
## Result 64

## Task Find the recorded %max belonging to `CCNC(=O)c1c(C)sc2nc(Cn3nc(C(F)(F)F)cc3OCC(C)C)cc(=O)n12` and report it.
## Result 10

## Task Endpoint output: %max of `CCN(Cc1cc(=O)n2c(-c3cncnc3)c(C)sc2n1)c1ccc(F)cc1` . Value?
## Result 16

## Task %max lookup needed for `CCNC(=O)c1c(C)sc2nc(CNc3ccc(F)cc3)cc(=O)n12` , thanks.
## Result 19

## Task Fill in the blank: the reported %max of `Cc1sc2nc(COc3ccc(F)cc3)cc(=O)n2c1[C@@H]1C[C@H]1CO` is ____.
## Result 6

## Task Bench note: what %max did `CCNC(=O)c1c(C)sc2nc(Cc3cc(C#N)ccc3C3CC3)cc(=O)n12` show?
## Result 2

## Task Reported %max, compound `C=C(C)c1c(C)sc2nc(CN(CC)c3ccc(F)cc3)cc(=O)n12` : ____
## Result 22

## Task State the recorded %max for this entry: `CCN(Cc1cc(=O)n2cc(C)sc2n1)c1ccc(F)cc1`
## Result 93

## Task // %max lookup, key: `CCN(Cc1cc(=O)n2nc(C)sc2n1)c1ccccc1`
## Result 95

## Task Which %max is reported for this compound? `CCN(Cc1cc(=O)n2c(CO)c(C)sc2n1)c1ccc(F)cc1`
## Result 83

* * *

target: Glutamate NMDA receptor; GRIN1/GRIN2A (Homo sapiens, UniProt Q05586+Q12879); test: Positive allosteric modulation of GluN1/GluN2A NMDAR (unknown origin) expressed in Dox-inducible cells measured every 5 mins by BD calcium indicator dye based-fluorescence analysis in presence of glutamate/glycine
Below, each entry is listed alongside its reported pEC50.
The scale used: pEC50 is minus the common logarithm of the concentration in molar units.

Examples with their reported pEC50 follow.
[
  {
    "mol": "CCNC(=O)c1c(C)sc2nc(CN(C)c3ccc(F)cc3)cc(=O)n12",
    "pEC50": 6.36
  },
  {
    "mol": "CCNC(=O)c1c(C)sc2nc(Cc3cccc(C(F)(F)F)c3F)cc(=O)n12",
    "pEC50": 5.92
  },
  {
    "mol": "CCN(Cc1cc(=O)n2c(C3CC3)c(C)sc2n1)c1ccc(F)cc1",
    "pEC50": 6.40
  }
]

## Task pEC50 lookup needed for `CCN(Cc1cc(=O)n2c(-c3cncnc3)c(C)sc2n1)c1ccc(F)cc1` , thanks.
## Result 6.86
